tested on: T47D; experiment: NCI tumour cell line growth inhibition, 48 h
The source made the active and inactive calls. No stated cut-off is given here; in the data, active = GI50 up to about 1.1 µM and inactive = higher.
Possible outcomes: 1 (yes) (active), 0 (no) (inactive)

* CC1(C)CCC2(C(=O)OC3OC(CO)C(O)C(O)C3O)CCC3(C)C(=CCC4C5(C)CCC(OC6OC(CO)C(O)C(O)C6O)C(C)(C)C5CCC43C)C2C1 (stereo not given) | 0 (no)
* Clc1nc(NCCc2ccccc2)c2ncn(-c3ccccc3)c2n1 | 0 (no)
* COc1cccc2c1C(=O)c1c(O)c3c(c(O)c1C2=O)C[C@@](O)(C(C)=O)CC3OC1CC(OC2CC(N)C(O)C(C)O2)C(O)C(C)O1 (stereo not given in full) | 0 (no)
* Cc1ccc(NC(=O)CSc2nc(O)nc3[nH]cnc23)cc1 | 0 (no)
* O=C(OCC(OC(=O)c1ccccc1)C1CC(C(O)C2CCCCC2)C(=O)O1)c1ccccc1 (stereo not given) | 0 (no)
* CSc1cc(Cl)c(C)cc1S(=O)(=O)NC(=O)NNc1ccc(F)c(Cl)c1 | 0 (no)
* O=C1N(CN2CCOCC2)CN(CN2CCOCC2)C(=O)N1Cc1ccc(-c2ccc(CN3C(=O)N(CN4CCOCC4)CN(CN4CCOCC4)C3=O)cc2)cc1 | 0 (no)
* Cn1c(-c2ccc(/N=N/Nc3ccc(-c4n[nH]c(=S)n4C)cc3)cc2)n[nH]c1=S | 0 (no)
* COC(=O)C(Cc1ccccc1)NP(=O)(O)OCC1OC(n2cc(I)c(=O)[nH]c2=O)CC1O (stereo not given) | 0 (no)
* COc1ccc2nccc(NCCCN3CCN(CCCNc4ccnc5ccc(OC)cc45)CC3)c2c1 | 1 (yes)
* COc1cc2c(/C=C3/C(=O)Nc4ccc(O)cc43)c(Cl)n(Cc3ccccc3)c2cc1C | 0 (no)
* O=c1[nH]c2cc3cccnc3c(Cl)c2nc1CBr | 0 (no)
* O=[Se](O)O | 0 (no)
* COc1ccc(-c2cc(-c3cc(OC)c(OC)c(OC)c3)cc(-c3cc4ccccc4oc3=O)n2)cc1 | 0 (no)
* COc1cc(C2c3cc4c(cc3OC(N3CCCC3)C2C)OCO4)cc(OC)c1OC (stereo not given) | 0 (no)
